Reference source for all entries: ChEMBL document CHEMBL5329224

test: Selectivity ratio of IC50 for inhibition of Biotinylated KRAS G13D mutant (unknown origin) to IC50 for inhibition of Biotinylated wild type KRAS (unknown origin)

compound: Cc1cc(N)nc(-c2cc3nc(OC[C@@H]4CCCN4C)nc4c3c(c2Cl)OC[C@@H]2CN(C(=O)C[C@@H]3CCNC3)CCN42)c1C(F)(F)F
Ratio IC50: 2.1
--
compound: Cc1cc(N)nc(-c2cc3nc(OC[C@@H]4CCCN4C)nc4c3c(c2Cl)OC[C@@H]2CN(C(=O)C3(N)CC3)CCN42)c1C(F)(F)F
Ratio IC50: 1.8
--
compound: Cc1cc(N)nc(-c2cc3nc(OC[C@@H]4CCCN4C)nc4c3c(c2Cl)OC[C@@H]2CN(C(=O)[C@H](C)N(C)C)CCN42)c1C(F)(F)F
Ratio IC50: 0.94
--
compound: C=C1CN2CCC[C@@]2(COc2nc(N3CCN(C(=O)/C=C/c4cc(C5CCN(C)CC5)c(C)cn4)C[C@@H]3C)c3cc(Cl)c(-c4nc(N)cc(C)c4C(F)(F)F)c(F)c3n2)C1
Ratio IC50: 15
--
compound: Cc1cc(N)nc(-c2cc3nc(OC[C@@H]4CCCN4C)nc4c3c(c2Cl)OC[C@@H]2CN(C(=O)/C=C/c3nccc5c3CNCC5)CCN42)c1C(F)(F)F
Ratio IC50: 6.1
--
compound: Cc1cc(N)nc(-c2cc3nc(OC[C@@H]4CCCN4C)nc4c3c(c2Cl)OC[C@@H]2CN(C(=O)C3CC35CCNCC5)CCN42)c1C(F)(F)F (mixture of isomers)
Ratio IC50: 2.1
--
compound: Cc1cc(N)nc(-c2cc3nc(OC[C@@H]4CCCN4C)nc4c3c(c2Cl)OC[C@@H]2CN(C(=O)[C@@H]3CC[C@H]3N)CCN42)c1C(F)(F)F
Ratio IC50: 1.5
--
compound: Cc1cc(N)nc(-c2cc3nc(OC[C@@H]4CCCN4C)nc4c3c(c2Cl)OC[C@@H]2CN(C(=O)CC[C@@H]3CCCCN3)CCN42)c1C(F)(F)F
Ratio IC50: 2.5
--
compound: Cc1cc(N)nc(-c2cc3nc(OC[C@@H]4CCCN4C)nc4c3c(c2Cl)OC[C@@H]2CN(C(=O)CCC3(N)CCOC3)CCN42)c1C(F)(F)F (mixture of isomers)
Ratio IC50: 2.5
--
compound: Cc1cc(N)nc(-c2cc3nc(OC[C@@H]4CCCN4C)nc4c3c(c2Cl)OC[C@@H]2CN(C(=O)C3CC35CNC5)CCN42)c1C(F)(F)F (mixture of isomers)
Ratio IC50: 1.3
--
compound: Cc1cc(N)nc(-c2cc3nc(OC[C@@H]4CCCN4C)nc4c3c(c2Cl)OC[C@@H]2CN(C(=O)CCN)CCN42)c1C(F)(F)F
Ratio IC50: 2.5
--
compound: C=C1CN2CCC[C@@]2(COc2nc(N3CCN(C(=O)/C=C/c4cc(CN(C)C)c(C)cn4)C[C@@H]3C)c3cc(Cl)c(-c4nc(N)cc(C)c4C(F)(F)F)c(F)c3n2)C1
Ratio IC50: 9.2
--
compound: Cc1cc(N)nc(-c2cc3nc(OC[C@@H]4CCCN4C)nc4c3c(c2Cl)OC[C@@H]2CN(C(=O)CC3CC5(CCC5)CN3)CCN42)c1C(F)(F)F (mixture of isomers)
Ratio IC50: 1.1
--
compound: C=C1CN2CCC[C@@]2(COc2nc(N3CCN(C(=O)/C=C/c4cccc5c4CN4CCC5C4)C[C@@H]3C)c3cc(Cl)c(-c4nc(N)cc(C)c4C(F)(F)F)c(F)c3n2)C1 (stereo in doubt; form 2)
Ratio IC50: 27
--
compound: COC1CC(N)(C(=O)N2CCN3c4nc(OC[C@@H]5CCCN5C)nc5cc(-c6nc(N)cc(C)c6C(F)(F)F)c(Cl)c(c45)OC[C@@H]3C2)C1 (mixture of isomers)
Ratio IC50: 1.5
--
compound: C=C1CN2CCC[C@@]2(COc2nc(N3CCN(C(=O)/C=C/c4cccc5c4CNC(C)(C)C5)C[C@@H]3C)c3cc(Cl)c(-c4nc(N)cc(C)c4C(F)(F)F)c(F)c3n2)C1
Ratio IC50: 16
--
compound: C=C1CN2CCC[C@@]2(COc2nc(N3CCN(C(=O)/C=C/c4cccc5c4CN4CCC5C4)C[C@@H]3C)c3cc(Cl)c(-c4nc(N)cc(C)c4C(F)(F)F)c(F)c3n2)C1 (stereo in doubt; form 1)
Ratio IC50: 29
